Tested on: IGROV-1
Assay: NCI tumour cell line growth inhibition, 48 h
Active and inactive are the calls of the source. No stated cut-off is given here; in the data, active = GI50 up to about 1.1 µM and inactive = higher.
Answer with one of the outcomes TRUE for active, FALSE for inactive

Example entries and their recorded answers appear below.
COMPOUND	CLASS
CNC(C)Cc1ccc(O)cc1 (configuration not stated)	FALSE
N#Cc1cccc(/C=N/C23CC4CC(CC(C4)C2)C3)c1	FALSE

Record lookup: outcome of this test for CC(C)(C)C1CCC2c3c([nH]c4ccccc34)C3C(=O)N(c4ccc(C#N)cc4)C(=O)C3C2C1 (configuration not stated) ?
FALSE

Record lookup: outcome of this test for O=c1c(/C=C/c2c(O)ccc3ccccc23)nnc2sc(-c3cccc(Br)c3)nn12 ?
TRUE

Record lookup: outcome of this test for S=c1nc2c(c[nH]1)C1c3ccccc3C2c2ccccc21 ?
FALSE

Record lookup: outcome of this test for CC(=O)OC1COC(n2c(=S)n(-c3ccccc3)c(=O)c3cc(Br)ccc32)C(OC(C)=O)C1OC(C)=O (configuration not stated) ?
FALSE

Record lookup: outcome of this test for O=C(/C=C/c1ccc(O)cc1)OC[C@@H](O)COC1OC(CO)C(O)C(O)C1O (some centres not stated) ?
FALSE

Record lookup: outcome of this test for COc1cc2c(c(O)c1OC)-c1c(cc(OC)c(OC)c1OC)CC(C)C(C)C2 (configuration not stated) ?
FALSE
